biological target: PI3Kα H1047R (T47D cells) (Homo sapiens, UniProt P42336, H1047R); construct: endogenous in cells; host or cells: T47D cells; assay: PI3Kα cellular assay: pAKT HTRF in T47D cells after EGF stimulation; assay type: cell-based; details: selectivity T47D (H1047R) over SKBR3 (WT), pAKT HTRF
Sequence (P42336 whole entry H1047R): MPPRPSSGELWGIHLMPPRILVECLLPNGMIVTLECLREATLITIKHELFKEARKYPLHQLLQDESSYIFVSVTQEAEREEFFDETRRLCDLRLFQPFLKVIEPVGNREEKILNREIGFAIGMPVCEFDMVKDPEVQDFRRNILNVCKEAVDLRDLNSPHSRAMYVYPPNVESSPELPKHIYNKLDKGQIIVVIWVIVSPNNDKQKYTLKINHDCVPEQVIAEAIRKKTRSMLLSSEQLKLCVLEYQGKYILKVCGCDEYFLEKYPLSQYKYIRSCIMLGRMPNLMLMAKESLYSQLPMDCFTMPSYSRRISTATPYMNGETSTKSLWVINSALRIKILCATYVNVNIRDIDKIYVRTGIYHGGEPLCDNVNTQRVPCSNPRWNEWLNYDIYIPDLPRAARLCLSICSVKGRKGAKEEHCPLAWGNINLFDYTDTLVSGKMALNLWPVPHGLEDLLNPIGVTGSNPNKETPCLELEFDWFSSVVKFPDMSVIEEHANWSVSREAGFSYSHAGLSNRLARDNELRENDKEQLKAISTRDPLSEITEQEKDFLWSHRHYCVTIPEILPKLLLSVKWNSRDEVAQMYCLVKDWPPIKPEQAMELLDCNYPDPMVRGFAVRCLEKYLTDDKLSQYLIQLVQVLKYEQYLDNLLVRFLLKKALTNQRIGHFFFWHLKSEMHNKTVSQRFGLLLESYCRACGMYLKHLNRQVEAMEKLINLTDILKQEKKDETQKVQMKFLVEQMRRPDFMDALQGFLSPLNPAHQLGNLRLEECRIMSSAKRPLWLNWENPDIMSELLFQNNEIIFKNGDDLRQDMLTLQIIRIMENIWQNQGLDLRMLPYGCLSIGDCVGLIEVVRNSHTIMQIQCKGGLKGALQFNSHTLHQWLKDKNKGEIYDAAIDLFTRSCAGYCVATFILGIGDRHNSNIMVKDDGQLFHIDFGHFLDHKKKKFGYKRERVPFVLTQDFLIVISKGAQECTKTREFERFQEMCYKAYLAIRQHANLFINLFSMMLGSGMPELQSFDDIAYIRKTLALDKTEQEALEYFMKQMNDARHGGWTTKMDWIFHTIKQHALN
Sequence (P27986 whole entry partner): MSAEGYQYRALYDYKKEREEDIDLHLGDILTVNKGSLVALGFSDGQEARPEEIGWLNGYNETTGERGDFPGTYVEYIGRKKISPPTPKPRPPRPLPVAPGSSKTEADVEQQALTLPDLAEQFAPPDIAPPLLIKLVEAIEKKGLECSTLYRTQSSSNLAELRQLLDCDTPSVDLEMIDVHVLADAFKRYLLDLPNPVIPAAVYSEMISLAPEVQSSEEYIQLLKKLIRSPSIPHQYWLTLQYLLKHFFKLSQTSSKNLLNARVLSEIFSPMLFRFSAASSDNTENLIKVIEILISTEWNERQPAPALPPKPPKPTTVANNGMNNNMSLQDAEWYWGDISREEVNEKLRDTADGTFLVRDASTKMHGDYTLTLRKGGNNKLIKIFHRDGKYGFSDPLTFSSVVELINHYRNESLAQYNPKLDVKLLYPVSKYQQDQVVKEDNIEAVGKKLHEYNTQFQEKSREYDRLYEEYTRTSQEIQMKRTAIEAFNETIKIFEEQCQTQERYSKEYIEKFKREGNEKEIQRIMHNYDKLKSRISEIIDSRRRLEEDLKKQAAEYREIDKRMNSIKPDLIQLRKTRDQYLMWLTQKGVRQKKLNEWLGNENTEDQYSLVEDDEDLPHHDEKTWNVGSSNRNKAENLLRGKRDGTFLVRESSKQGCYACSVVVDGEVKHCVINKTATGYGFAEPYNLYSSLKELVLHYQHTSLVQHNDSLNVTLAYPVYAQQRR
quantity.kind: T47D pAKT S473 HTRF IC50 (H1047R): T47D (H1047R) selectivity over SKBR3 (WT)

{"columns": ["compound", "result"],
 "data": [
  ["Cc1cc(C(C)Nc2ccccc2C#N)c2nc(N3CCOCC3)cc(=O)n2c1 (centres unmarked)", "C (C denotes ≤5-fold)"],
  ["Cc1cc(C(C)Nc2ccccc2C(=O)O)c2nc(-c3ccc4nc(NC(=O)C5CC5)nn4c3)cc(=O)n2c1 (centres unmarked)", "C (C denotes ≤5-fold)"],
  ["Cc1cc([C@@H](C)Oc2ccccc2C(N)=O)c2nc(N3CCOCC3)cc(=O)n2c1", "C (C denotes ≤5-fold)"]
]}

The reported numbers originate from patent US20260132129A1.
